- System: LXFL 529
- test-protocol: NCI tumour cell line growth inhibition, 48 h
The source made the active and inactive calls. No stated cut-off is given here; in the data, active = GI50 up to about 1.1 µM and inactive = higher.
// one of yes (1) = active, no (0) = inactive, no free text

Below are worked cases with known answers.
[
  {
    "molecule": "C#CCN(N=O)C(=O)NCCCCC(NC(C)=O)C(=O)NCc1ccccc1 (stereo unspecified)",
    "category": "no (0)"
  },
  {
    "molecule": "O=CC1=CCCN(CCc2c[nH]c3ccccc23)C1",
    "category": "no (0)"
  },
  {
    "molecule": "O=C1OC(=O)c2c1nc1ccccc1c2-c1ccccc1",
    "category": "no (0)"
  },
  {
    "molecule": "CN(C)CCS/C(=N\\c1ccccc1)N1CCCCC1",
    "category": "no (0)"
  },
  {
    "molecule": "COc1ccc2c(c1OC)C(C=C(c1ccccc1)c1ccccc1)CN(C)C2 (stereo unspecified)",
    "category": "no (0)"
  }
]

Tell me the assay call for O=C(O)C[C@H]1CCCCC12CCOC2=O (stereo partly specified) please. no (0)

COC(=O)CC1NC(=O)C1C1(C)OCCO1 (stereo unspecified) , same question. no (0)

What about this molecule? Cc1cn(C2C=CC(=O)C(C)O2)c(=O)[nH]c1=O (stereo unspecified) no (0)

Note, next up: `O=C(Cc1nc2ccccc2s1)C(=O)Nc1ccccc1C(F)(F)F` no (0)

And the next one, `C/C=C/COC(=O)CO[N+](=O)[O-]` ? no (0)

How about `CCn1c2ccccc2c2ccc3c(c21)C(=O)c1ccccc1C3=O` ? no (0)

CC(NC(=O)c1ccccc1)C(=O)N(Cc1ccccc1)Cc1ccccc1 (stereo unspecified) , same question. no (0)

// repeat for `CCOC(=N)CC(=O)Nc1ccccc1` and report no (0)

Would you mind doing `Nc1nc(O)c2nc(N)n(Cc3ccccc3)c2n1` as well? no (0)

What about `Cn1c(=O)c(C(c2ccccc2)c2c(O)c3ccccc3n(C)c2=O)c(O)c2ccccc21` ? no (0)

Also need `COC(=O)c1cccc2c3ccccc3c3ccccc3c12` , thanks. no (0)

Let us now turn to CCOC(=O)C1=C(C)N(NC(=O)Nc2ccccc2)C2(N)N(NC(=O)Nc3ccccc3)C(C)=C(C(=O)OCC)C12C(=O)OCC (stereo unspecified) no (0)

---

- System: MDA-N
- test-protocol: NCI tumour cell line growth inhibition, 48 h
The source made the active and inactive calls. Cut-off read from the data, not from the text of the source: active = GI50 up to about 1.1 µM and inactive = higher.
measured-property: GI50

[
  {
    "compound": "CC1CCC2CC1NC(=O)CCOCCC(=O)NC2(C)C (stereo not given)",
    "target-of-assay": "MDA-N",
    "GI50": "> 100 µM (inactive)"
  },
  {
    "compound": "S=C(Nc1ccc2c(c1)oc1ccccc12)c1cccnc1",
    "target-of-assay": "MDA-N",
    "GI50": "> 100 µM (inactive)"
  },
  {
    "compound": "Nc1[nH]c(=O)[nH]c(=O)c1Cc1cccc(Cl)c1",
    "target-of-assay": "MDA-N",
    "GI50": "41 µM (inactive)"
  }
]

Entry CC(=O)Oc1cc(-c2oc3cc(OC(C)=O)c(C4OC(CO)C(O)C(O)C4O)c(OC(C)=O)c3c(=O)c2O)c(OC(C)=O)cc1O (stereo not given) : reported GI50 = ? > 100 µM (inactive)

Next entry: `O=[N+]([O-])c1ccc(S[C@@H]2[C@H]3c4c(-c5ccccc5)[nH]c(-c5ccccc5)c4[C@@H]2C[C@H]3Cl)cc1` 2.89 µM (inactive)

Values compiled from ChEMBL document CHEMBL1201862.
